# ASSAYED TARGET: MDR1 (P-glycoprotein) (Homo sapiens)
# Construct: host or cells: MDCK (MDR1-MDCK; wild-type MDCK as comparator)
# Sequence (P08183 whole entry): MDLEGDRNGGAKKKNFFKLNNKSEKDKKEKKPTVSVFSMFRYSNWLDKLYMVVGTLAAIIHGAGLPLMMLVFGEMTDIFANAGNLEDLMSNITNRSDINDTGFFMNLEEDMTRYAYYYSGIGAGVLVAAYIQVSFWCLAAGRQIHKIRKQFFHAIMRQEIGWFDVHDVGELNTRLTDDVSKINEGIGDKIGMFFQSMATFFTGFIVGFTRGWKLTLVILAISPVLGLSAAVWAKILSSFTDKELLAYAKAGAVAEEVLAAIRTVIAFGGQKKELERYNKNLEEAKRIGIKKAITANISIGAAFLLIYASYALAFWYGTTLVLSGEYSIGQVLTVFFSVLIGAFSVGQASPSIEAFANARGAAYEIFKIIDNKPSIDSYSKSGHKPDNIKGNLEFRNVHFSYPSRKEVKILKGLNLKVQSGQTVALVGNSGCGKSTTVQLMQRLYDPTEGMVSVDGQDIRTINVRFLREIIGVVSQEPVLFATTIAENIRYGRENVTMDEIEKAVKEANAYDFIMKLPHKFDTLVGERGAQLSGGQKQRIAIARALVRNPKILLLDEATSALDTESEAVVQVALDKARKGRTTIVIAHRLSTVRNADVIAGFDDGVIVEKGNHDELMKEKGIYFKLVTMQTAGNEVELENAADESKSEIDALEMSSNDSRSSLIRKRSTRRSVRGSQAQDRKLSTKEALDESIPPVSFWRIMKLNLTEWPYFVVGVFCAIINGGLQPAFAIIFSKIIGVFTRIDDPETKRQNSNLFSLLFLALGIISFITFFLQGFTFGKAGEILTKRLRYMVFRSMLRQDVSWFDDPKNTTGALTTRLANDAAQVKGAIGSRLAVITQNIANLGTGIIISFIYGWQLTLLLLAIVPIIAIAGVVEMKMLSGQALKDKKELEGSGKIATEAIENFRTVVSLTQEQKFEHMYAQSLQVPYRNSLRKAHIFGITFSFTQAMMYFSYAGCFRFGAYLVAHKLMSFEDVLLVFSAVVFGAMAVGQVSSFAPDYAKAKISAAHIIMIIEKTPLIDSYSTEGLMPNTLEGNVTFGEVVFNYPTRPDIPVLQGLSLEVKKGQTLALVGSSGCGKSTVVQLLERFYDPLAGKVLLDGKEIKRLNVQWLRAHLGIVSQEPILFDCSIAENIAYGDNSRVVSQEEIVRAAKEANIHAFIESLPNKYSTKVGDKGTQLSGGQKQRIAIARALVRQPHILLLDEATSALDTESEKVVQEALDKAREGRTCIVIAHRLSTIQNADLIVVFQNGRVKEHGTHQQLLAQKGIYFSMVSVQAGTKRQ
# RUN DESCRIPTION: MDR1-MDCK permeability and efflux assay (Papp, efflux ratio, effective efflux ratio)
# Format: in vitro ADME
# STATED CONDITIONS: dog, MDCK-MDR1, pH 7.4, Papp B>A/Papp A>B, MDR1-MDCK cells; read-out: ER MDR1 (Efflux Ratio)

{"MOLECULE": "O=C(N1CC2(C1)CN(c1cccnn1)C2)N1CCOc2cc(Cl)ccc21 [1-71]", "ASSAYED TARGET": "MDR1 (P-glycoprotein) (Homo sapiens)", "efflux ratio at 1 h, 10 μM": "1 to 2"}
{"MOLECULE": "CC1COc2cc(Cl)c(F)cc2N1C(=O)N1CC2(C1)CN(c1ncccn1)C2 (single isomer, unassigned) [19-2-B]", "ASSAYED TARGET": "MDR1 (P-glycoprotein) (Homo sapiens)", "efflux ratio at 1 h, 10 μM": "1 to 2"}
{"MOLECULE": "COc1ccnc(N2CC3(CN(C(=O)N4c5ccc(Cl)cc5OCC4C)C3)C2)c1 (single isomer, unassigned) [20-8-B]", "ASSAYED TARGET": "MDR1 (P-glycoprotein) (Homo sapiens)", "efflux ratio at 1 h, 10 μM": "< 1"}
{"MOLECULE": "CC1COc2cc(F)ccc2N1C(=O)N1CC2(C1)CN(c1cnccn1)C2 (single isomer, unassigned) [1-65-B]", "ASSAYED TARGET": "MDR1 (P-glycoprotein) (Homo sapiens)", "efflux ratio at 1 h, 10 μM": "1 to 2"}
{"MOLECULE": "Cc1cncc(N2CC3(CN(C(=O)N4CCOc5cc(Cl)ccc54)C3)C2)n1 [1-22]", "ASSAYED TARGET": "MDR1 (P-glycoprotein) (Homo sapiens)", "efflux ratio at 1 h, 10 μM": "1 to 2"}
{"MOLECULE": "CC1COc2cc(Cl)ccc2N1C(=O)N1CC2(C1)CN(c1noc3ccccc13)C2 (centres unmarked) [21-1]", "ASSAYED TARGET": "MDR1 (P-glycoprotein) (Homo sapiens)", "efflux ratio at 1 h, 10 μM": "1 to 2"}
{"MOLECULE": "Cc1cnnc(N2CC3(CN(C(=O)N4c5ccc(Cl)cc5OCC4C)C3)C2)c1 (centres unmarked) [21-4]", "ASSAYED TARGET": "MDR1 (P-glycoprotein) (Homo sapiens)", "efflux ratio at 1 h, 10 μM": "> 3"}
{"MOLECULE": "COc1ccc2c(c1)OCC(C)N2C(=O)N1CC2(C1)CN(c1ccc(F)cn1)C2 (single isomer, unassigned) [1-59-B]", "ASSAYED TARGET": "MDR1 (P-glycoprotein) (Homo sapiens)", "efflux ratio at 1 h, 10 μM": "1 to 2"}

* * *

Measured pIC50 accompanies every entry in the list below.
# ASSAYED TARGET: human Arginine Vasopressin Receptor 1a (AVPR1a) (Homo sapiens)
# Sequence (P37288 whole entry): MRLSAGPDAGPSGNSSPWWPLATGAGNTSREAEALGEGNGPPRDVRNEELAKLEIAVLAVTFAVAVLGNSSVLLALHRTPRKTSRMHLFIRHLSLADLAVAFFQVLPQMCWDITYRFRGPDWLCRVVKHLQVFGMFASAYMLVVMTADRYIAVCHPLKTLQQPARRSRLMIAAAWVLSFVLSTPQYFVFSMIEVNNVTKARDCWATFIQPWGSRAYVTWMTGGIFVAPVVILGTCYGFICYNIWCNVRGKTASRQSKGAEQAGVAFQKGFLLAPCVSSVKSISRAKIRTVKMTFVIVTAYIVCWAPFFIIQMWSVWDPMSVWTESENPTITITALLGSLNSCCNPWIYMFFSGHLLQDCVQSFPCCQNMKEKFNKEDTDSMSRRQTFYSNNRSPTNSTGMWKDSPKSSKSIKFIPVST
# RUN DESCRIPTION: Vasopressin V1a receptor antagonist assay (FLIPR calcium, CHO-AVPR1a cells)
pIC50: −log10 of the molar value.
MEASURE NAME: pIC50

{"COMPOUND": "CC1COc2cc(F)ccc2N1C(=O)N1CC2(C1)CN(c1ccccn1)C2 (centres unmarked) [1-66]", "ASSAY VALUE": "> 7.00"}
{"COMPOUND": "O=C(N1CC2(C1)CN(c1ccc(F)cn1)C2)N1CCC(O)c2c1ccc(Cl)c2F (single isomer, unassigned) [13-5-A]", "ASSAY VALUE": "> 7.00"}
{"COMPOUND": "O=C(N1CC2(CN(Cc3ccncc3)C2)C1)N1CCOc2cc(Cl)ccc21", "ASSAY VALUE": "≤ 6.00"}
{"COMPOUND": "COc1ccc2c(c1)OCCN2C(=O)N1CC2(C1)CN(c1ccc(F)cn1)C2", "ASSAY VALUE": "> 7.00"}
{"COMPOUND": "CC1COc2cc(Cl)ccc2N1C(=O)N1CC2(C1)CN(c1ccccn1)C2 (single isomer, unassigned) [1-60-A]", "ASSAY VALUE": "6.00 to 6.30"}
{"COMPOUND": "Cc1ccnc(N2CC3(CN(C(=O)N4c5ccc(Cl)cc5OCC4C)C3)C2)c1 (centres unmarked) [20-11]", "ASSAY VALUE": "> 7.00"}
{"COMPOUND": "COc1ccc(N2CC3(CN(C(=O)N4CCOc5cc(Cl)ccc54)C3)C2)nc1", "ASSAY VALUE": "> 7.00"}
{"COMPOUND": "Cc1ccnc(N2CC3(CN(C(=O)N4c5ccc(Cl)cc5OCC4C)C3)C2)n1 (single isomer, unassigned) [20-12-A]", "ASSAY VALUE": "≤ 6.00"}
{"COMPOUND": "CC1COc2cc(Cl)ccc2N1C(=O)N1CC2(C1)CN(c1ncccc1C#N)C2 (centres unmarked)", "ASSAY VALUE": "> 7.00"}
{"COMPOUND": "CC1COc2cc(F)ccc2N1C(=O)N1CC2(C1)CN(c1ccccn1)C2 (single isomer, unassigned) [1-66-A]", "ASSAY VALUE": "≤ 6.00"}
{"COMPOUND": "CC1COc2cc(Cl)ccc2N1C(=O)N1CC2(C1)CN(c1cccnn1)C2 (single isomer, unassigned) [9-1-A]", "ASSAY VALUE": "≤ 6.00"}
{"COMPOUND": "Cc1cccnc1N1CC2(CN(C(=O)N3CCOc4cc(Cl)ccc43)C2)C1", "ASSAY VALUE": "> 7.00"}
{"COMPOUND": "O=C(N1CC2(C1)CN(c1ccncc1)C2)N1CCOc2cc(Cl)ccc21", "ASSAY VALUE": "≤ 6.00"}
{"COMPOUND": "O=C(N1CC2(C1)CN(c1ccc(F)cn1)C2)N1CCC(O)c2c1ccc(Cl)c2F (centres unmarked) [13-5]", "ASSAY VALUE": "> 7.00"}
{"COMPOUND": "CN1Cc2cnc(N3CC4(CN(C(=O)N5CCOc6cc(Cl)ccc65)C4)C3)nc2C1", "ASSAY VALUE": "≤ 6.00"}
{"COMPOUND": "COc1ccnc(N2CC3(CN(C(=O)N4c5ccc(Cl)cc5OCC4C)C3)C2)c1 (centres unmarked) [20-8]", "ASSAY VALUE": "> 7.00"}
{"COMPOUND": "O=C(N1CC2(C1)CN(c1ccccn1)C2)N1CCOCc2cc(Cl)ccc21", "ASSAY VALUE": "> 7.00"}

Values compiled from patent US12152038B2.
